Origin of values: PubChem BioAssay AID687016

# subject of test: E3 ubiquitin-protein ligase UHRF1 (Homo sapiens)
# assay details: blockers of UHRF1 binding to methyl-oligo – biochemical, TR-FRET, human UHRF1, single concentration, counter-screen for MBD2 inhibitor project, primary screen (AID 687016);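 further: UHRF1 SRA domain binding a hemimethylated CpG hairpin DNA probe; 0% = median of test compound wells and 100% = reference inhibitor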
# experimental conditions: UHRF1 binding to methylated oligo, at 4.4 µM, active compounds read high
About 2,800 (0.76%) of roughly 370,000 compounds were called active. Many of the other results were omitted from the sample, so actives are more common in it than they were.
property: inhibition (%)

In [3]: df
Out[3]:
                                    molecule    property  unit_tag  result_number
 0  O=C(OC12CCCN(C1)/C(=C/c1ccccc1)C2)c1ccco1 (configuration not stated)  inhibition         %           3.41
 1  COc1ccc(-c2[nH][nH]c(=O)c2NC(=O)c2ccc([N+](=O)[O-])cc2)cc1  inhibition         %          -5.21
 2  CC(C)N(C(=O)Cn1cc(S(=O)(=O)CC(=O)N2CCOCC2)c2ccccc21)C(C)C  inhibition         %           0.05
 3      COc1ccnc(C(=O)N2CCC(Oc3cccnc3)CC2)c1  inhibition         %          -0.76
 4  COC(=O)[C@H](C(C)C)N(CCCc1cn(Cc2ccccc2)nn1)S(=O)(=O)c1ccc(F)cc1Br  inhibition         %           7.41
 5  CC(Cc1cccs1)NC(=O)c1cccc(Cl)c1 (configuration not stated)  inhibition         %          -1.41
 6  O=C(NCc1ccco1)C1CCCN(S(=O)(=O)c2ccc(Cl)s2)C1 (configuration not stated)  inhibition         %          -1.18
 7  C=CCN1[C@@H](Cc2ccccc2)COc2cccc(N3CCSCC3)c2S1(=O)=O  inhibition         %          -0.98
 8    Cc1c(CN2CCC(C)CC2)c(=O)n(-c2ccccc2)n1C  inhibition         %           2.11
 9  CCN(CC)C(=O)Cn1cc(S(=O)(=O)CC(=O)NCc2ccc3c(c2)OCO3)c2ccccc21  inhibition         %           22.7
10  O=S1(=O)c2c(NCc3ccco3)cccc2Oc2ccccc2CN1Cc1cn(Cc2cccc(C(F)(F)F)c2)nn1  inhibition         %           3.97
11  CC(=O)Oc1ccc2c(=O)oc(-c3ccc([N+](=O)[O-])cc3)nc2c1  inhibition         %           20.8
12      CN(CC#CCC(c1ccccc1)c1ccccc1)C(C)(C)C  inhibition         %          -0.47
13  Cc1cnc(C(=O)N2CCCC(C(=O)c3ccc(C(F)(F)F)cc3)C2)cn1 (configuration not stated)  inhibition         %             22
14             Cc1c(C=O)n(C)n(-c2ccccc2)c1=O  inhibition         %           25.1
15  CC(C)c1ccc(C2C(C#N)=C(N)Oc3c2oc(CO)cc3=O)cc1 (configuration not stated)  inhibition         %          -3.69
16  CCOC(=O)[C@]12CCCC=C1N(Cc1ccc(OC)cc1)C(=O)[C@@H]2CC(=O)NCc1cccs1  inhibition         %           0.05
17  C=C(C)C1CC23C(=O)C4(C(=O)c5ccccc5)C[C@@]5(C)CCC(CC2C1(C)C)(C4=O)C35OC (some centres not stated)  inhibition         %            0.2
18         CC(C)(C)N(Cc1ccccc1)C(=O)c1ccncc1  inhibition         %           1.02
19                  Cc1ccc(C(=O)Cn2cccn2)cc1  inhibition         %           5.04
20  C[C@H]1[C@H](NC(=O)c2cccc(N(C)C)c2)CC[C@@]23CCCN2C(=O)CCC[C@@H]13  inhibition         %           0.44
21  Nc1ncnc2c1ncn2[C@@H]1O[C@H](C(=O)N2CCSC2)[C@@H](O)[C@H]1O  inhibition         %           2.48
22  CCCCNC(=O)C[C@@H]1C(=O)N(CCc2ccc(Cl)cc2)C2=CCCC[C@]21C(=O)OCC  inhibition         %          -3.97
23  COc1ccc(-n2c(COc3ccccc3)nnc2SCC(=O)Nc2ccc3c(c2)OCO3)cc1  inhibition         %           0.77
24  Cc1cc([N+](=O)[O-])nn1CC(=O)Nc1ccc(Cc2ccncc2)cc1  inhibition         %          -2.12
25  COC(=O)C(C)Oc1ccc2c(-c3cccc([N+](=O)[O-])c3)cc(=O)oc2c1 (configuration not stated)  inhibition         %          -2.28
26      Oc1ccc(N2CCN(C(=S)NCc3ccccc3)CC2)cc1  inhibition         %           40.4
27  Cc1cccc(N2CCN(Cc3c(C)n(C)n(-c4ccccc4)c3=O)CC2)c1C  inhibition         %          -0.95
28  COc1cccc(/C=C2\CC3(OC(C)=O)CCCN2C3)c1 (configuration not stated)  inhibition         %          -1.67
29        Cc1cc([N+](=O)[O-])nn1Cc1ccc(F)cc1  inhibition         %           20.9
30      CCS(=O)(=O)Nc1cc(C(=O)OC)ccc1C(=O)OC  inhibition         %          -4.74
31  Cc1ccc(Cn2cc(COC(=O)N(C)Cc3ccccc3)nn2)cc1  inhibition         %           -4.1
32  Cc1ccc(C(=O)C2CCN(CC(=O)NCCC(C)C)CC2)cc1  inhibition         %           9.98
33  C=CCOc1ccc(/C=C/C(=O)OC(C)C(=O)Nc2ccc(NC(C)=O)cc2)cc1 (configuration not stated)  inhibition         %            0.2
34  Cc1ccc(S(=O)(=O)NC(C)C(=O)NCc2ccc(Cl)cc2)cc1 (configuration not stated)  inhibition         %           0.66
35  CC(C)C(C#CC1CC1)N(Cc1ccc2c(c1)OCO2)C(N)=NC(=O)/C=C/c1cccc(C(F)(F)F)c1 (configuration not stated)  inhibition         %          -0.23
36  CCN(CC)C(=O)C(=O)c1cn(CC(=O)NCc2ccc3c(c2)OCO3)c2ccccc12  inhibition         %            1.9
37    CCN(CCO)C(=S)Nc1cc(C(=O)OC)ccc1C(=O)OC  inhibition         %           2.08
38  C=CCN1[C@H](CC(C)C)COc2cccc(N3CCCC3)c2S1(=O)=O  inhibition         %          -0.17
39  CCOC(=O)[C@]12CCCC=C1N(Cc1ccc(OC)cc1)C(=O)[C@@H]2CC(=O)N1CCOCC1  inhibition         %          -0.91
40  O=S(=O)(c1ccccc1)N1CCC(c2nc3ccccc3o2)CC1  inhibition         %           -2.1
41  CCOC(=O)C1(Cc2ccccc2)CCN(Cc2cn(C(C)=O)c3ccccc23)CC1  inhibition         %          -2.91

----------
# subject of test: E3 ubiquitin-protein ligase UHRF1 (Homo sapiens) (UniProt Q96T88)
# Sequence (Q96T88 whole entry, looked up, the tested form may be a part): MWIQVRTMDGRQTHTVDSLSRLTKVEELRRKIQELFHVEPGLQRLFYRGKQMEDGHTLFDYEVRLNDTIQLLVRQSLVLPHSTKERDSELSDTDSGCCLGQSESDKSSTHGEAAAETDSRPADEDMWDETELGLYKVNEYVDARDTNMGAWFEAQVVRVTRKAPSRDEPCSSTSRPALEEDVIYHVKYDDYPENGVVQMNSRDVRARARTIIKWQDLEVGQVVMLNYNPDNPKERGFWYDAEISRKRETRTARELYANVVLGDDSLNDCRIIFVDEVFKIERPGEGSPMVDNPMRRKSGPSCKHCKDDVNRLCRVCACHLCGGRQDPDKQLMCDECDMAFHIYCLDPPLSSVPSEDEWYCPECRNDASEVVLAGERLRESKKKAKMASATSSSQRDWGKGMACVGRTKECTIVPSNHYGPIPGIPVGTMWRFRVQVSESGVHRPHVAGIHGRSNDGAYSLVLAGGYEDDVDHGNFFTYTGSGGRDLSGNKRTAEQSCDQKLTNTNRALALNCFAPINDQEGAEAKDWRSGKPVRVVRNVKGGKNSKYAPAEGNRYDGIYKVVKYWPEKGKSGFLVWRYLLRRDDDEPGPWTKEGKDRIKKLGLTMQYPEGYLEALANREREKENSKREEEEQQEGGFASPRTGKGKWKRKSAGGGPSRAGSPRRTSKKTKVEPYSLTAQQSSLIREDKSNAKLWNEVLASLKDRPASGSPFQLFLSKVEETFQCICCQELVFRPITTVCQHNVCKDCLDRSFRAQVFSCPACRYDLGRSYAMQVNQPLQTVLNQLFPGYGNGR
# assay details: blockers of UHRF1 binding to methyl-oligo – biochemical, TR-FRET, human UHRF1, single concentration, counter-screen for MBD2 inhibitor project, primary screen (AID 687016);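 further: UHRF1 SRA domain binding a hemimethylated CpG hairpin DNA probe; 0% = median of test compound wells and 100% = reference inhibitor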
# experimental conditions: UHRF1 binding to methylated oligo, at 4.4 µM
Among all 370,000 compounds or so, about 2,800 (0.76%) were called active. No stated cut-off is given here; in the data, active means inhibition above about 21%; inactive means the rest. Shown is part of a subset that was picked to be rich in actives.
Outcomes: active, inactive

>>> print(df.to_string())
                                    molecule  label_value
 0       COc1nc(Oc2ccc(=O)n(C)n2)nc(N(C)C)n1     inactive
 1  Cc1ccc(-n2c(SCC(=O)Nc3cccc4ccccc34)nnc2-c2ccco2)cc1     inactive
 2  COc1ccc(CN(CCN2CCOCC2)C(=O)c2ccc(C)cc2)cc1OC     inactive
 3  COc1ccccc1NC(=O)C1CCCN1S(=O)(=O)c1ccc(Cl)cc1 (centres undefined)     inactive
 4  COc1nc(N(C)C)nc(N2CC(=O)N(CCNS(=O)(=O)c3ccc(C)cc3)C2=N)n1       active
 5  COc1ccc(C(=O)OCC(=O)c2ccc(C)c(S(=O)(=O)N3CCOCC3)c2)cc1OC     inactive
 6  Cc1cccc(NC(=O)C2CCCN(C(=O)Nc3ccc(F)cc3)C2)c1C (centres undefined)     inactive
 7  CN(C(=O)COC(=O)c1cc(=O)[nH]c2ccccc12)C1CCCCC1     inactive
 8  O=C(CSc1nnc(-c2cccc(Cl)c2)n1Cc1ccco1)Nc1ccc(OCc2ccccc2)cc1     inactive
 9  Cc1ccccc1CSc1nnc(CCCCCNC(=O)OC(C)(C)C)o1     inactive
10  CC(=O)c1cccc(-c2ccc(CN3C(CC(C)C)C(=O)N(Cc4cn(CC5CCCCC5)nn4)CCS3(=O)=O)cc2)c1 (centres undefined)       active
11  O=C(c1ccncc1)N1CC[C@H]2[C@H](CCCN2Cc2ccc(F)cc2)C1     inactive
12  CCOc1ccc(Oc2c(Cl)cnn(-c3ccc(C)cc3)c2=O)cc1     inactive
13  COc1cccc(CNC(=O)C2CCCN(c3nc4ccccc4o3)C2)c1OC (centres undefined)     inactive
14       Nc1ccc2nc3c(=O)[nH]c(=S)[nH]c3nc2c1       active
15  O=C(Nc1ccccc1)N1CCN(Cc2nc3ccccc3c(=O)[nH]2)CC1     inactive
16  Cc1ccc(OCCC(=O)OCC(=O)N2c3ccccc3NC(=O)C2(C)C)cc1       active
17  CN(C)C(=O)c1cccc(-c2cnc3c(NC=O)cc(-c4ccc(C(=O)N5CCOCC5)cc4)cn23)c1     inactive
18  O=C(CCCCCN1C(=O)C2C3C=CC(C3)C2C1=O)Nc1ccccn1 (centres undefined)     inactive
19  O=C(NCc1cccs1)C1CCN(S(=O)(=O)c2ccccc2[N+](=O)[O-])CC1     inactive
20  O=C(Cn1ncc2c3ccccc3n(Cc3ccccc3)c2c1=O)NCc1ccccn1     inactive
21  COc1ccc(Cn2cc(CN3[C@@H](CC(C)C)COc4cc(Br)ccc4S3(=O)=O)nn2)cc1     inactive
22  COC(=O)[C@]12C[C@H](CC(=O)N3CCN(C(=O)C4CC4)CC3)C(=O)N(CCC3=CCCCC3)C1=C[C@H](C(C)C)O[C@@H]2C1CC1     inactive
23  COc1ccc(CSc2nnc(SCC(=O)Nc3ccccc3C(F)(F)F)s2)cc1     inactive
24  CC(=O)c1cccc(-c2cnc3c(NC=O)cc(-c4ccc(N(C)C)cc4)cn23)c1       active
25  CC(C)C(=O)Nc1cccc(NC(=O)c2ccc([N+](=O)[O-])cc2Cl)c1       active
26  CC(=O)c1cccc(-c2cnc3c(NC=O)cc(-c4ccc(N5CCN(C)CC5)cc4)cn23)c1     inactive
27  CN1C[C@]2(C=C3CCCCC3n3c(=O)n(-c4ccccc4)c(=O)n32)N=C1NC(=O)c1ccccc1 (some centres undefined)     inactive
28  Cc1ccccc1Cn1c2ccccc2c2cnn(CC(=O)NCc3ccco3)c(=O)c21       active
29  O=C(Cn1ncc2c3ccccc3n(Cc3ccccc3)c2c1=O)NCCCN1CCOCC1     inactive
30    Cc1cc(=O)[nH]c(SCC(=O)Nc2ccc(F)cc2F)n1     inactive
31  CN(C)[C@@H]1C(=O)C(C(N)=O)=C(O)[C@@]2(O)C(=O)C3=C(O)c4c(O)ccc(Cl)c4[C@@H](O)[C@H]3C[C@@H]12       active
32  Cc1cc(C(=O)OCC(=O)N2C(C)CCCC2C)c2ccccc2n1 (centres undefined)     inactive
33  CC(C)CC1C(=O)N(Cc2cn(CC3CCCCC3)nn2)CCS(=O)(=O)N1Cc1ccc(-c2ccc(Cl)cc2)cc1 (centres undefined)     inactive
34  Cc1cccc(NC(=O)CSc2nnc(CCNC(=O)OC(C)(C)C)o2)c1C     inactive
35  Cc1ccc(-n2c(SCC(=O)Nc3cccc4ccccc34)nnc2-c2ccccn2)cc1     inactive
36  C=C1c2c(Cl)ccc(O)c2C(O)=C2C(=O)[C@]3(O)C(O)=C(C(N)=O)C(=O)[C@@H](N(C)C)[C@@H]3[C@@H](O)C12 (some centres undefined)       active
37    O=C(NCc1ccco1)c1ccc([N+](=O)[O-])cc1Cl     inactive
38          Cc1ccc(S(=O)(=O)NCCSC(C)(C)C)cc1     inactive
